test system: K4 kissing-loop RNA reporter; experiment: apparent KD of K4 kissing-loop reporter; higher = weaker reporter binding; settings: Eterna round: R107; input ligand: none;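 also: bound reporter read as fluorescence of individual clusters on recovered sequencing chips by microscopy, with normalized cluster intensities fitted with a binding model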
metric: apparent KD of K4 kissing-loop reporter (nM)
Kindly answer with a numeric value in nM, unit omitted.

GGAUAGGACAGAGGAUAUCUCUGAGGCAAGAAAACUUGUCUCUAAAGAGAUGACUCAGUGAUGUUGGGAGAAGGCUGUCCUAUCG [FmnBX 10 - #SwitchBubble #StaticStem] :: 141
AUUUUGUUGUCAGGAUAUUAGUAUGGUUUUGGUUUGUUAGUGAUGUUGAUGUUUUGUUUAUGUAUUUAAGAAGGGAUUUAGCGGU [aqaawgumullin] :: 400
UGUGUACCGGGAAGGAGCGUGAAUGAGAAUGGAUAUAGUGAUGUUAUGUAUACGAACGAAUCGCAGGUAGGUCGCCCGGAUCCCU [SSArgB.Z] :: 677

Give its apparent KD of K4 kissing-loop reporter value. Item: UGACUGGAUGGAAGGAGCGCUAAACUCCUAGUGAUGUUAGGGAAAUGAGGCAAAGCCUCGAGGCAGGUAGGUCGCCAUCUAGUCU [FiskerMod 18 - Jieux - Same State - Arginine B]
155

Give its apparent KD of K4 kissing-loop reporter value. Item: GACUCUCUCGUCAGGAAGACGCACUCAGCCAAGGAUAUUAUGUUUUUAAGAAGGUGGACUUAUGCCAGUGAUGUUGGCAGAUACG [theeternabot_sameState_KL_FMN_A_29]
67.6

Give its apparent KD of K4 kissing-loop reporter value. Item: UGGCGGACGAUCCGGAGUGAUGUUCCGGAUACCAGCAGAAGAGCCUGCCCUUGGCAGCCGUACGACGCUGGGAGAGUCCGGCGUC [Soteina]
81.1

Give its apparent KD of K4 kissing-loop reporter value. Item: AGUAAUAUCACGGCCGCCACUGAUUAUUGUUUUUAUAGUUAUAAAUCUUGCCAGUGAUGUUGGUUCAGGACCGGGUGAGUUAAUA [JR_SSTryptoB_Sub001]
584

Give its apparent KD of K4 kissing-loop reporter value. Item: ACACGUGUGGCAGGAUAUCGGGCUGUGGAUCGGCUGGUUGCUUAUUCUCGACCAGUGAUGUUGGUACGAGAAGGGCUACCCAGAA [Diorce]
114

###

tested on: MS2 coat protein; assay: apparent KD of MS2 coat protein; higher = weaker reporter binding; details: Eterna round: R107; input ligand: arginine 13.2 mM
Measured apparent KD of MS2 coat protein accompanies every entry in the list below.

Some sequences with known apparent KD of MS2 coat protein results, for comparison:
AUGGUAGGACAGCACAUAUAAGCUUGUGAUACCAGCUAGAAAACUAGCCCUUGGCAGCACAUUACAUGAGGAUCACCCAUGUCCC [EThA NP+V+V2 #1] :: 44.1 nM
ACAUGAGGAUCACCCAUGUCACUCGUGUUCCGAGGACCGGUACGGCCGCCACUCGGUCCUCGCGAGGAUGGUCAAAGACUAUCCA [Omei Trp A SS B v2] :: 37.1 nM

Give its apparent KD of MS2 coat protein value. Item: UCGCUCUGGGUGAAUCCCAGAGAUGUGGAAGGAGCGGAGGAAACUCCAGGUAGGUCGCCAUCGAACAUGAGGAUCACCCAUGUAC [Same State - Arginine A (Freestyle 28)]
35.6 nM
